Values from patent US20260116991A1

- Experimental Target: T1, monkey GPC3-His protein (monkey)
- T1 construct: Bought recombinant protein; also called monkey GPC3 protein
- Protocol: ELISA, monkey GPC3-His coated;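 note: Plate-coated antigen at 1 µg/mL, antibody binding 2 h at 37 °C, detected with HRP-labeled secondary antibody and TMB, absorbance at 450 nm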
OD450 at 0.01 nM values for the binders below.
A number alone suffices; assume OD450.

[
  {
    "Binder": "F1.3.9 (antibody, human IgG1, kappa, V domains shown, Human-murine chimeric antibody) VH: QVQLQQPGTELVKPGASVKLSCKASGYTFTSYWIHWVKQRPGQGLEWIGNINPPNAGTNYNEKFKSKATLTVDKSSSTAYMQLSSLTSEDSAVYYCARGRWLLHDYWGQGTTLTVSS VL: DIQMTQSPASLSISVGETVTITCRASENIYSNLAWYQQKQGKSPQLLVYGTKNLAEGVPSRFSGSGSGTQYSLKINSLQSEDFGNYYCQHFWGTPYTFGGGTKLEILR",
    "OD450 at 0.01 nM (OD450)": 0.16
  }
]

Next up:
[Q] # input binder: F1.21.8 (antibody, human IgG1, kappa, V domains shown, Human-murine chimeric antibody) VH: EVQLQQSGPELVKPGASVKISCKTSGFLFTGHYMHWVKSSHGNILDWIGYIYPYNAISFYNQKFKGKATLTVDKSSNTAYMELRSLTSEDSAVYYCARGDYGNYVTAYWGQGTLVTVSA VL: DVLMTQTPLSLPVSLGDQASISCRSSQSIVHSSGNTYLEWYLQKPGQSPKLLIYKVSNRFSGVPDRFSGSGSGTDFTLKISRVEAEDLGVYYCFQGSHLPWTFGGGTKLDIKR ; wanted: its OD450 at 0.01 nM
[A] 0.12
